Where do these numbers come from? They come from PubChem BioAssay (NCI).

experiment: NCI Yeast Anticancer Drug Screen. Data for the rad52 strain (AID 147);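 note: 0% = growth of vehicle-treated control cultures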; conditions: S. cerevisiae rad52 mutant growth inhibition; at 1.2 µM; active compounds read high
The panel holds about 79,000 compounds, 15% with a hit somewhere; the sample as a whole holds those more often. Active and inactive are the calls of the source. Cut-off read from the data, not from the text of the source: active = growth inhibition above about 70%; inactive = the rest.
The following compounds are shown together with reported growth inhibition values.
Quantity Kind: growth inhibition

• O=C1C2=C(c3ccccc31)C(c1ccccc1)N1C(=O)CSC1=N2 (stereo unspecified) = 12% (inactive)
• CC(C)OC(=O)NNc1cccc(Cl)c1 = 1% (inactive)
• CSC(=S)N/N=C/c1ccccc1 = 10% (inactive)
• CCN(CC)CCCNc1ccc([N+](=O)[O-])c2nc3ccc(OC)cc3c(NCCCN(CC)CC)c12 = 15% (inactive)
• O=S(=O)(c1cccc(C(F)(F)F)c1)N1c2ccccc2-n2cccc2C1c1cccnc1 (stereo unspecified) = -23% (inactive)
• O=C(NCCNCCNC(=O)c1cc(-c2ccccc2)nc2ccccc12)c1cc(-c2ccccc2)nc2ccccc12 = -3% (inactive)
• O=C1Nc2ccc(Br)cc2C1=Nc1ccc(Cl)cc1 = -20% (inactive)
• CC(C)=CCC/C(C)=C/CN1C(=O)C=CC1=O = 9% (inactive)
• O=C1CSC(c2ccccc2)N1c1ccc(-c2ccc(-n3c(-c4ccccc4)nc4ccccc4c3=O)cc2)cc1 (stereo unspecified) = 0% (inactive)
• COc1c2c(c3c(c1CCC(=O)O)OC(C)(C)C=C3)OC(C)(C)C=C2 = -3% (inactive)
• COc1cc(C2C3=C(COC3=O)Oc3cc4c(cc32)OCO4)cc(OC)c1O (stereo unspecified) = 90% (active)

###

The following compounds are shown together with reported growth inhibition values.
test: NCI Yeast Anticancer Drug Screen. Data for the rad52 strain (AID 147);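 note: 0% = growth of vehicle-treated control cultures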; settings: S. cerevisiae rad52 mutant growth inhibition; at 3.7 µM; active compounds read high
This is part of a sample that, as a whole, favours compounds with a hit. Of some 79,000 tested, about 15% had one in any assay.
Quantity Kind: growth inhibition (%)

* O=[N+]([O-])[O][Sn]([O][Sn]([O][N+](=O)[O-])([c]1ccccc1)[c]1ccccc1)([c]1ccccc1)[c]1ccccc1 | 9
* COc1cc(OC)c(CSCC(NC(=O)OCC2c3ccccc3-c3ccccc32)C(=O)O)c(OC)c1 (stereo unspecified) | 5
* Cc1cc(C)c2[s+]snc2c1 | 7
* O=C(Nn1c(-c2ccccc2)nc2ccccc2c1=O)c1ccc(CS)cc1 | 20
* COc1cccc(C(NC2=NCCC=N2)c2cc3c(cc2O)OCO3)c1O (stereo unspecified) | 2
* O=C1C2=C(c3ccccc31)C(c1ccccc1)N1C(=O)CSC1=N2 (stereo unspecified) | 15

###

test: NCI Yeast Anticancer Drug Screen. Data for the bub3 strain (AID 167); conditions: S. cerevisiae bub3 mutant strain, at 1.2 µM, active compounds read high
Compounds without any hit were thinned out: in the full panel of roughly 79,000, 15% have a hit.
Quantity Kind: growth inhibition (%)

• COc1cccc(C(NC2=NCCC=N2)c2cc3c(cc2O)OCO3)c1O (stereo not drawn) = -9
• CCCCCc1c(CCCC)c(=O)[nH]c2cc(CNCC(OC)OC)ccc12 = -6
• CCCCCCCN(CCCCCCC)CC(=O)c1ccc2cc(Cl)c3ccccc3c2c1 = 9
• CC(C)CCC[C@@H](C)[C@H]1CC[C@H]2[C@@H]3CC[C@H]4C[C@H](N)CC[C@]4(C)[C@H]3CC[C@]12C = -2
• COc1cc2c(cc1O)[C@H](C)C(c1ccccc1OC)O2 (stereo partly drawn) = 24
• CC(C)=CCc1c2c(c(O)c3c(=O)c(-c4ccc(O)c(O)c4)coc13)C=CC(C)(C)O2 = -29
• O=C(O)c1ccccc1C(=O)OC1CCc2ccccc2C1 (stereo not drawn) = -9
• COc1ccc2c3c1OC(C)C31CC(=O)CCC1CC2 (stereo not drawn) = -5
• CC(C)=CCC/C(C)=C/CN1C(=O)C=CC1=O = 10
• CC1CN(/N=C\c2ccc([N+](=O)[O-])o2)C(=O)O1 (stereo not drawn) = -1
• O=C1c2ccccc2-c2cc3ccccc3c(=O)n21 = 3
• CN(C)CCNc1ccc2ncn3c4ccc(O)cc4c(=O)c1c23 = -19
• Nc1ccc2cc(Br)ccc2c1Br = 3
• Cc1c2c(nc3ccccc13)C(=O)c1cccnc1C2=O = 5
• COc1ccc2nc(CCc3ccccc3)ccc2c1 = -6
• CN(C)CC(CN(C)C)C(=O)/C=C/c1ccc(Cl)cc1Cl = -3
• Nc1ccc(N=Nc2ccc(-c3ccc(O)cc3)cc2)c2ccc(S(=O)(=O)O)cc12 = -1
• O=C1c2ccccc2C(=O)c2sc(Nc3ccccc3Cl)nc21 = -4
• Cc1cccc(C)c1NC(=O)C(C#N)C1=C(Cl)C(=O)c2ccccc2C1=O (stereo not drawn) = 6
• CC(=O)Oc1ccc2c(c1)Cc1cc(N3C(=O)C=CC3=O)ccc1-2 = -9
• S=C1N(c2ccc(Cl)cc2)C2=C(N=Nc3ccccc3)C(=Nc3ccccc3S2)N1c1ccccn1 = 22
• COc1cc2oc3ccccc3c(=O)c2cc1CSc1ccccc1N = -1
• CCOC(=O)/C(=C\c1cccc(C)c1)C(C)=O = 1

###

assay: NCI Yeast Anticancer Drug Screen. Data for the mlh1 strain (AID 171);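 note: 0% = growth of vehicle-treated control cultures of the same strain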; conditions: S. cerevisiae mlh1 strain growth inhibition; at 33.0 µM; active compounds read high
Compounds without any hit were thinned out: in the full panel of roughly 79,000, 15% have a hit.
Quantity Kind: growth inhibition (%)

- CCCCS/C(=C(/C#N)C(N)=O)c1cc2c([nH]1)CCCC2: -36
- COC(=O)C1CCCCC1C(=O)Nc1ccccc1 (stereo unspecified): 2
- COc1ccc2nc3cccc([N+](=O)[O-])c3c(NCCNCCN(C)C)c2c1: -3
- O=C(NO)c1coc2ccccc2c1=O: 1
- Cc1ccc([N+](=O)[O-])c2c(NCCC[N+](C)(C)[O-])c3ccccc3nc12: -12
- COc1ccc(C(C)c2cc3c(cc2OC(C)O)OCO3)cc1 (stereo unspecified): 1
- CCCN=Cc1cc(Cc2ccc(O)c(C=NCCC)c2)ccc1O: 98
- COc1ccc(C2CC(C)(N3CCCC3)Oc3cc4c(cc32)OCO4)cc1 (stereo unspecified): 13
- O=C1/C(=C/c2ccc(Cl)c(Cl)c2)CNC/C1=C\c1ccc(Cl)c(Cl)c1: 69
- c1ccc2c(c1)N=C1CCCC3CCCC123 (stereo unspecified): 3
- O=[N+]([O-])[O][Sn]([O][Sn]([O][N+](=O)[O-])([c]1ccccc1)[c]1ccccc1)([c]1ccccc1)[c]1ccccc1: 35
- Cc1c(C(=O)/C=C/c2ccccc2[N+](=O)[O-])[n+](=O)c2ccccc2n1[O-]: 94
- CC1=CN2C(c3ccccc3)=NON(c3ccc(C)cn3)C2C=C1 (stereo unspecified): -1
- O=C(O)c1cc2c(cc1S(=O)(=O)O)C1C(C3C2C2(Cl)C(Cl)=C(Cl)C3(Cl)C2(Cl)Cl)C2(Cl)C(Cl)=C(Cl)C1(Cl)C2(Cl)Cl (stereo unspecified): 95
- CC(C)C(=O)CC(Sc1ccc(N)cc1)c1ccccc1 (stereo unspecified): 30
- COc1ccc2nc(CCc3ccccc3)ccc2c1: -14

###

The following compounds are shown together with reported growth inhibition values.
test: NCI Yeast Anticancer Drug Screen. Data for the mec2-1 strain (AID 157); details: S. cerevisiae mec2-1 strain, at 50.0 µM, active compounds read high
This is part of a sample that, as a whole, favours compounds with a hit. Of some 79,000 tested, about 15% had one in any assay. The source made the active and inactive calls. Rule as the data show it: active = growth inhibition above about 70%; inactive = the rest.
Quantity Kind: growth inhibition

- O=[N+]([O-])[O][Sn]([O][Sn]([O][N+](=O)[O-])([c]1ccccc1)[c]1ccccc1)([c]1ccccc1)[c]1ccccc1: 57.6% (inactive)
- S=C1N(c2ccc(Cl)cc2)C2=C(N=Nc3ccccc3)C(=Nc3ccccc3S2)N1c1ccccn1: 98.5% (active)
- CCCCCCCCCCCCCCN: 92.1% (active)
- CCCCCCCSCC1C(=O)C23C(O)C1CCC2C12COC3(O)C(O)C1C(C)(C)CCC2O (stereo not drawn): 88.2% (active)
- O=C(/N=N/C(=O)Oc1ccccc1)Oc1ccccc1: 8.5% (inactive)
- CN1C(=O)C(CC(=O)O)NC1=S (stereo not drawn): 33.9% (inactive)
- CCC[CH2][Ge]([CH2]CCC)([CH2]CCC)[O]C(=O)C(O)c1ccccc1 (stereo not drawn): 90.5% (active)
- S=C1C(=Nc2ccccc2)N(c2ccccc2)/C(=N\c2ccccn2)N1c1ccccc1: 97.9% (active)
- COc1ccc2cc3c4cc5c(cc4cc[n+]3cc2c1OC)OCO5: 92.2% (active)
- Oc1ccc(C2(c3ccc(O)cc3)CCCC2)cc1: 93.2% (active)
- CN(C)CCCn1c2c3ccccc3ccc2c2oc(=O)c3ccccc3c21: 98.8% (active)
- N#C/C(=C\NC(=S)Nc1ccc(S(N)(=O)=O)cc1)C(=O)c1ccc2ccccc2c1: -3.5% (inactive)
- CC(CC/C(=N/O)c1ccccc1)(CC/C(=N\O)c1ccccc1)[N+](=O)[O-] (stereo not drawn): 96.5% (active)
- CC1=CC(=O)C=CC1=Nc1cc(Cl)c(O)c(Cl)c1: 79.3% (active)
- COc1ccc(-c2cc(-c3cc(C)cc(Cl)c3O)nc3[nH]c(=S)[nH]c(=S)c23)cc1: 82.6% (active)
- O=NC1c2cccc3cccc(c23)C1N=O (stereo not drawn): 94.3% (active)
- COc1ccc2nc3cccc([N+](=O)[O-])c3c(NCCCCCC(=O)O)c2c1: 91% (active)
- COc1cc2oc3ccccc3c(=O)c2cc1CSc1ccccc1N: -19.2% (inactive)
- CC(C)[Si]1(C(C)C)OCC2OC(n3cnc4c(N)ncnc43)C(N)C2O[Si](C(C)C)(C(C)C)O1 (stereo not drawn): 90.4% (active)
- Cc1cccc2c1C1c3c(C)cccc3C(CC(=O)O)CC1CC2 (stereo not drawn): 99% (active)
- Nc1ccc2cc(Br)ccc2c1Br: 90.2% (active)
- CCN(CC)CCNc1ccc2ncn3c4ccc(O)cc4c(=O)c1c23: 3.05% (inactive)
- O=C(Oc1ccc([N+](=O)[O-])cc1)c1ccc([N+](=O)[O-])cc1: 53.7% (inactive)
